- ASSAYED SYSTEM: Matrix protein 2 (Influenza A virus) (UniProt P06821)
- Sequence (P06821 whole entry): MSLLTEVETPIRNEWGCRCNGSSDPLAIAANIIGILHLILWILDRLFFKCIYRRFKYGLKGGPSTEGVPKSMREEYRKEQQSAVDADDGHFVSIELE
- PROTOCOL: Inhibition of full length influenza A virus A/Udorn/72 (H3N2) M2 expressed in Xenopus laevis oocytes assessed as inhibition of channel current at 100 uM measured after 2 mins by two-electrode voltage clamp assay relative to control
- Assay type: cell-based
- STATED CONDITIONS: Oocyte
Kindly state inhibition for each of the entries shown.
Expressed in %, but write only the number.

Output inhibition of CC(N)C12CC3CC(CC(C3)C1)C2 (racemic)
96

Complete the entry with inhibition for CC(C)(N)C12CC3CC(CC(C3)C1)C2
90

Item C[C@@H](N)C12CC3CC(CC(C3)C1)C2 : provide inhibition
93

Recall and state the measured inhibition for C[C@H](N)C12CC3CC(CC(C3)C1)C2 .
95
